# maps each entry to its koff
# tgt: T1, human nerve growth factor (human, UniProt P01138 122-241)
# T1 construct: Immobilised on CM5 chips for BIAcore, soluble in neuron survival assays; also called human NGF; hNGF
# method summary: BIAcore SPR screen, Fab over immobilised human NGF
Report only the number, with the unit s⁻¹ understood.

binder	unit abbreviation	koff
8L2-6D5 Fab with CDR H3 mutation Y100L (Fab, V domains shown, See note of m8) VH: QVQLQESGPGLVKPSETLSLTCTVSGFSLIGYDINWIRQPPGKGLEWIGMIWGDGTTDYNSALKSRVTISKDTSKNQFSLKLSSVTAADTAVYYCARGGLYYGTSYYFDYWGQGTLVTVS VL: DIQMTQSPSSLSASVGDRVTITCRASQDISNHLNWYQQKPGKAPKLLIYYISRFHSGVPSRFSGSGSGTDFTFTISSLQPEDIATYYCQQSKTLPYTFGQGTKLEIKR	s⁻¹	0.0012
8L2-6D5 Fab with CDR L3 mutation Y96R (Fab, V domains shown, See note of m8) VH: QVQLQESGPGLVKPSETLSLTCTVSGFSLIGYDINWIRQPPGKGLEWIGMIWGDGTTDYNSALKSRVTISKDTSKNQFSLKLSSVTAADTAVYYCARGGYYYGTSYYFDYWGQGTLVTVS VL: DIQMTQSPSSLSASVGDRVTITCRASQDISNHLNWYQQKPGKAPKLLIYYISRFHSGVPSRFSGSGSGTDFTFTISSLQPEDIATYYCQQSKTLPRTFGQGTKLEIKR	s⁻¹	0.0017
8L2-6D5 Fab with CDR H3 mutation Y107F (Fab, V domains shown, See note of m8) VH: QVQLQESGPGLVKPSETLSLTCTVSGFSLIGYDINWIRQPPGKGLEWIGMIWGDGTTDYNSALKSRVTISKDTSKNQFSLKLSSVTAADTAVYYCARGGYYYGTSYFFDYWGQGTLVTVS VL: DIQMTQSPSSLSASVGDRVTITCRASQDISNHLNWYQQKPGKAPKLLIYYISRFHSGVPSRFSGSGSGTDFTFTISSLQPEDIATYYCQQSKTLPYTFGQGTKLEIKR	s⁻¹	0.0014
8L2-6D5 Fab with CDR H3 mutation Y110S (Fab, V domains shown, See note of m8) VH: QVQLQESGPGLVKPSETLSLTCTVSGFSLIGYDINWIRQPPGKGLEWIGMIWGDGTTDYNSALKSRVTISKDTSKNQFSLKLSSVTAADTAVYYCARGGYYYGTSYYFDSWGQGTLVTVS VL: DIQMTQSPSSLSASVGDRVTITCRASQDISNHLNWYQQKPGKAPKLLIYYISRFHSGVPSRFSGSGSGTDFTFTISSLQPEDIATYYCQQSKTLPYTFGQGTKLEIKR	s⁻¹	0.0015

As a next step, examine the binder that follows.
Recorded koff (binder 8L2-6D5 Fab with CDR H3 mutation Y100R (Fab, V domains shown, See note of m8) VH: QVQLQESGPGLVKPSETLSLTCTVSGFSLIGYDINWIRQPPGKGLEWIGMIWGDGTTDYNSALKSRVTISKDTSKNQFSLKLSSVTAADTAVYYCARGGRYYGTSYYFDYWGQGTLVTVS VL: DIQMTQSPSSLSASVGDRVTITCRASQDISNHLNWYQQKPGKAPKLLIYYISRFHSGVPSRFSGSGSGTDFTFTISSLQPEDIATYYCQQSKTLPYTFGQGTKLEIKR ): 0.0011

Source: patent US20170088610A1
